# ASSAY CONDITIONS: in n-propyl acetate, 333.15 K
RESULT TYPE: solubility (mole fraction)

Query string: Provide one value: measured solubility (mole fraction) of `O=C(O)/C=C/c1cccc(O)c1`
Result string: 0.0471

* * *

# ASSAY CONDITIONS: in n-propanol, 303.15 K
RESULT TYPE: solubility (mole fraction)
Just the number.

Query string: Provide one value: measured solubility (mole fraction) of `O=C(O)/C=C/c1cccc(O)c1`
Result string: 0.0585

* * *

# ASSAY CONDITIONS: in n-propyl acetate, 318.15 K
RESULT TYPE: solubility (mole fraction)

Query string: Provide one value: measured solubility (mole fraction) of `O=C(O)/C=C/c1cccc(O)c1`
Result string: 0.0302

* * *

# ASSAY CONDITIONS: in isopropanol, 293.15 K
RESULT TYPE: solubility (mole fraction)
Just the number.

Query string: Provide one value: measured solubility (mole fraction) of `O=C(O)/C=C/c1cccc(O)c1`
Result string: 0.0611

* * *

# ASSAY CONDITIONS: in isobutanol, 308.15 K
RESULT TYPE: solubility (mole fraction)

Query string: Provide one value: measured solubility (mole fraction) of `O=C(O)/C=C/c1cccc(O)c1`
Result string: 0.0449

* * *

# ASSAY CONDITIONS: in n-propyl acetate, 293.15 K
RESULT TYPE: solubility (mole fraction)
Just the number.

Query string: Provide one value: measured solubility (mole fraction) of `O=C(O)/C=C/c1cccc(O)c1`
Result string: 0.0155

* * *

# ASSAY CONDITIONS: in isobutanol, 318.15 K
RESULT TYPE: solubility (mole fraction)
Just the number.

Query string: Provide one value: measured solubility (mole fraction) of `O=C(O)/C=C/c1cccc(O)c1`
Result string: 0.0561

* * *

# ASSAY CONDITIONS: in n-propyl acetate, 313.15 K
RESULT TYPE: solubility (mole fraction)
Just the number.

Query string: Provide one value: measured solubility (mole fraction) of `O=C(O)/C=C/c1cccc(O)c1`
Result string: 0.0269

* * *

# ASSAY CONDITIONS: in methyl acetate, 323.15 K
RESULT TYPE: solubility (mole fraction)
Just the number.

Query string: Provide one value: measured solubility (mole fraction) of `O=C(O)/C=C/c1cccc(O)c1`
Result string: 0.0402

* * *

# ASSAY CONDITIONS: in ethanol, 328.15 K
RESULT TYPE: solubility (mole fraction)
Just the number.

Query string: Provide one value: measured solubility (mole fraction) of `O=C(O)/C=C/c1cccc(O)c1`
Result string: 0.103

* * *

# ASSAY CONDITIONS: in isopropanol, 313.15 K
RESULT TYPE: solubility (mole fraction)
Just the number.

Query string: Provide one value: measured solubility (mole fraction) of `O=C(O)/C=C/c1cccc(O)c1`
Result string: 0.0859

* * *

# ASSAY CONDITIONS: in methanol, 308.15 K
RESULT TYPE: solubility (mole fraction)
Just the number.

Query string: Provide one value: measured solubility (mole fraction) of `O=C(O)/C=C/c1cccc(O)c1`
Result string: 0.0669

* * *

# ASSAY CONDITIONS: in n-butanol, 293.15 K
RESULT TYPE: solubility (mole fraction)

Query string: Provide one value: measured solubility (mole fraction) of `O=C(O)/C=C/c1cccc(O)c1`
Result string: 0.0474

* * *

# ASSAY CONDITIONS: in methyl acetate, 303.15 K
RESULT TYPE: solubility (mole fraction)
Just the number.

Query string: Provide one value: measured solubility (mole fraction) of `O=C(O)/C=C/c1cccc(O)c1`
Result string: 0.0239

* * *

# ASSAY CONDITIONS: in ethyl acetate, 323.15 K
RESULT TYPE: solubility (mole fraction)

Query string: Provide one value: measured solubility (mole fraction) of `O=C(O)/C=C/c1cccc(O)c1`
Result string: 0.0377

* * *

# ASSAY CONDITIONS: in n-butanol, 328.15 K
RESULT TYPE: solubility (mole fraction)

Query string: Provide one value: measured solubility (mole fraction) of `O=C(O)/C=C/c1cccc(O)c1`
Result string: 0.0887

* * *

# ASSAY CONDITIONS: in methanol, 293.15 K
RESULT TYPE: solubility (mole fraction)
Just the number.

Query string: Provide one value: measured solubility (mole fraction) of `O=C(O)/C=C/c1cccc(O)c1`
Result string: 0.0516

* * *

# ASSAY CONDITIONS: in ethyl acetate, 303.15 K
RESULT TYPE: solubility (mole fraction)

Query string: Provide one value: measured solubility (mole fraction) of `O=C(O)/C=C/c1cccc(O)c1`
Result string: 0.0228

* * *

# ASSAY CONDITIONS: in n-propanol, 308.15 K
RESULT TYPE: solubility (mole fraction)
Just the number.

Query string: Provide one value: measured solubility (mole fraction) of `O=C(O)/C=C/c1cccc(O)c1`
Result string: 0.064

* * *

# ASSAY CONDITIONS: in n-propyl acetate, 323.15 K
RESULT TYPE: solubility (mole fraction)
Just the number.

Query string: Provide one value: measured solubility (mole fraction) of `O=C(O)/C=C/c1cccc(O)c1`
Result string: 0.035

* * *

# ASSAY CONDITIONS: in ethanol, 313.15 K
RESULT TYPE: solubility (mole fraction)
Just the number.

Query string: Provide one value: measured solubility (mole fraction) of `O=C(O)/C=C/c1cccc(O)c1`
Result string: 0.0802

* * *

# ASSAY CONDITIONS: in n-butanol, 308.15 K
RESULT TYPE: solubility (mole fraction)
Just the number.

Query string: Provide one value: measured solubility (mole fraction) of `O=C(O)/C=C/c1cccc(O)c1`
Result string: 0.0617

* * *

# ASSAY CONDITIONS: in n-propanol, 293.15 K
RESULT TYPE: solubility (mole fraction)
Just the number.

Query string: Provide one value: measured solubility (mole fraction) of `O=C(O)/C=C/c1cccc(O)c1`
Result string: 0.0493

* * *

# ASSAY CONDITIONS: in methyl acetate, 308.15 K
RESULT TYPE: solubility (mole fraction)
Just the number.

Query string: Provide one value: measured solubility (mole fraction) of `O=C(O)/C=C/c1cccc(O)c1`
Result string: 0.0276

* * *

# ASSAY CONDITIONS: in ethyl acetate, 298.15 K
RESULT TYPE: solubility (mole fraction)
Just the number.

Query string: Provide one value: measured solubility (mole fraction) of `O=C(O)/C=C/c1cccc(O)c1`
Result string: 0.0201

* * *

# ASSAY CONDITIONS: in n-butanol, 318.15 K
RESULT TYPE: solubility (mole fraction)
Just the number.

Query string: Provide one value: measured solubility (mole fraction) of `O=C(O)/C=C/c1cccc(O)c1`
Result string: 0.0741

* * *

# ASSAY CONDITIONS: in ethyl acetate, 313.15 K
RESULT TYPE: solubility (mole fraction)
Just the number.

Query string: Provide one value: measured solubility (mole fraction) of `O=C(O)/C=C/c1cccc(O)c1`
Result string: 0.0294

* * *

# ASSAY CONDITIONS: in ethanol, 293.15 K
RESULT TYPE: solubility (mole fraction)
Just the number.

Query string: Provide one value: measured solubility (mole fraction) of `O=C(O)/C=C/c1cccc(O)c1`
Result string: 0.0594

* * *

# ASSAY CONDITIONS: in n-butanol, 298.15 K
RESULT TYPE: solubility (mole fraction)

Query string: Provide one value: measured solubility (mole fraction) of `O=C(O)/C=C/c1cccc(O)c1`
Result string: 0.0513

* * *

# ASSAY CONDITIONS: in isopropanol, 333.15 K
RESULT TYPE: solubility (mole fraction)
Just the number.

Query string: Provide one value: measured solubility (mole fraction) of `O=C(O)/C=C/c1cccc(O)c1`
Result string: 0.12

* * *

# ASSAY CONDITIONS: in n-butanol, 333.15 K
RESULT TYPE: solubility (mole fraction)
Just the number.

Query string: Provide one value: measured solubility (mole fraction) of `O=C(O)/C=C/c1cccc(O)c1`
Result string: 0.0989

* * *

# ASSAY CONDITIONS: in isopropanol, 308.15 K
RESULT TYPE: solubility (mole fraction)

Query string: Provide one value: measured solubility (mole fraction) of `O=C(O)/C=C/c1cccc(O)c1`
Result string: 0.0794

* * *

# ASSAY CONDITIONS: in ethyl acetate, 308.15 K
RESULT TYPE: solubility (mole fraction)

Query string: Provide one value: measured solubility (mole fraction) of `O=C(O)/C=C/c1cccc(O)c1`
Result string: 0.0256

* * *

# ASSAY CONDITIONS: in ethanol, 303.15 K
RESULT TYPE: solubility (mole fraction)
Just the number.

Query string: Provide one value: measured solubility (mole fraction) of `O=C(O)/C=C/c1cccc(O)c1`
Result string: 0.0687

* * *

# ASSAY CONDITIONS: in ethanol, 308.15 K
RESULT TYPE: solubility (mole fraction)

Query string: Provide one value: measured solubility (mole fraction) of `O=C(O)/C=C/c1cccc(O)c1`
Result string: 0.0742

All figures here come from BigSolDB 2.1.
